Target: NDM-1 (Klebsiella pneumoniae, UniProt C7C422)
Sequence (C7C422 29-270, looked up, species assumed): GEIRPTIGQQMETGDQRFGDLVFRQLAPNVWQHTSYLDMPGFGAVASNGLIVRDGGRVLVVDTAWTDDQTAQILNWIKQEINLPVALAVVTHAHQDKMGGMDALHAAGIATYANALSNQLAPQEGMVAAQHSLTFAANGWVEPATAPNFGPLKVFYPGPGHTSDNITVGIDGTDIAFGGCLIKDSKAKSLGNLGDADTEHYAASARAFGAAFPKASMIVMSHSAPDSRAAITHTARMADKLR
Experiment: Enzyme activity: determination of IC50, fluorescence assay with CCF2-FA substrate
Type: biochemical
Details: enzyme 1 pM, CCF2-FA 1.25 μM, 2 hours at 25° C.; read-out: NDM1 IC50
observation_type: IC50
Please don't drop the unit; write it after the number.

Consider the worked cases shown below.
>  <compound>
CCC[C@H](C(=O)O)[C@H](Cc1ccc(NCc2ccc(O)cc2)nc1)c1nnn[nH]1 [Example 132]

>  <IC50>
160 nM

$$$$
>  <compound>
CC(C)[C@H](C(=O)O)[C@H](Cc1ccc(OCC(N)CO)nc1)c1nnn[nH]1 (stereo partly shown) [Example 142]

>  <IC50>
340 nM

$$$$
>  <compound>
CCC[C@H](C(=O)O)[C@H](Cc1ccc(NCCN2CCCCC2)cc1)c1nn[nH]n1 [Example 217]

>  <IC50>
500 nM

$$$$
>  <compound>
CC(C)C[C@H](C(=O)O)[C@H](Cc1ccc(-c2ccc(CN)cc2)cn1)c1nn[nH]n1 [Example 174]

>  <IC50>
240 nM

$$$$
>  <compound>
CCC[C@H](C(=O)O)[C@H](Cc1ccc(N2CCN(c3ccncc3)CC2)cc1)c1nn[nH]n1 [Example 227]

>  <IC50>
54 nM

$$$$
>  <compound>
CCC[C@H](C(=O)O)[C@H](Cc1ccc(-c2ccc3c(c2)CNC3)nc1)c1nnn[nH]1 [Example 95]

>  <IC50>
160 nM

$$$$
>  <compound>
CCC[C@H](C(=O)O)[C@H](Cc1ccc(-c2ccc(N(C)C)nc2)cc1)c1nn[nH]n1 [Example 189]

>  <IC50>
13 nM

$$$$
>  <compound>
CC(C)[C@H](C(=O)O)[C@H](CC1CCNCC1)c1nnn[nH]1 [Example 89]

>  <IC50>
18000 nM

$$$$

Just so you know, measured IC50 for O=C(O)[C@@H](C1CCCC1)[C@H](Cc1ccc(C2=CCNC2)cn1)c1nnn[nH]1 [Example 66] came out at 370 nM

Just so you know, measured IC50 for Cc1cc(C[C@H](c2nnn[nH]2)[C@@H](C(=O)O)C(C)C)ccc1C1=CCNC1 [Example 68] came out at 24 nM
